Measured Biodistribution, CCK2i4svR(+) Tumor accompanies every entry in the list below.
System: SCID mice bearing twin HEK293-CCK2i4svR and wtHEK293 tumors
TEST: Biodistribution in SCID mice bearing twin HEK293-CCK2i4svR and wtHEK293 xenografts
Assay type: in vivo
REPORTED_CONDITIONS: 4 h pi
Provide the reading as a plain figure in %IA/g.

[
  {
    "MOLECULE": "CC(C)(C)C(=O)CN1C(=O)[C@H](NC(=O)Nc2cccc(C(=O)NCCOCCOCCOCCNC(=O)[C@H](CCC(=O)O)NC(=O)CCC(C(=O)O)N3CCN(CC(=O)[O-])CCN(CC(=O)[O-])CCN(CC(=O)[O-])CC3)c2)CN(C2CCCCC2)c2ccccc21.[177Lu+3] (stereo in doubt) [[^177Lu]Lu-GAS3]",
    "TARGET_DESC": "SCID mice bearing twin HEK293-CCK2i4svR and wtHEK293 tumors",
    "OBSERVED_RESULT": 20.88
  },
  {
    "MOLECULE": "CC(C)(C)C(=O)CN1C(=O)[C@H](NC(=O)Nc2cccc(C(=O)NCCOCCOCCOCCNC(=O)[C@@H](CCC(=O)O)NC(=O)CCC(C(=O)[O-])N3CCN(CC(=O)[O-])CCN(CC(=O)[O-])CC3)c2)CN(C2CCCCC2)c2ccccc21.[111In+3] (stereo partly shown) [[^111In]In-GAS2]",
    "TARGET_DESC": "SCID mice bearing twin HEK293-CCK2i4svR and wtHEK293 tumors",
    "OBSERVED_RESULT": 8.91
  },
  {
    "MOLECULE": "CC(C)(C)C(=O)CN1C(=O)[C@H](NC(=O)Nc2cccc(C(=O)NCCOCCOCCOCCNC(=O)[C@H](CCC(=O)O)NC(=O)CCC(C(=O)O)N3CCN(CC(=O)[O-])CCN(CC(=O)[O-])CCN(CC(=O)[O-])CC3)c2)CN(C2CCCCC2)c2ccccc21.[67Ga+3] (stereo in doubt) [[^67Ga]Ga-GAS3]",
    "TARGET_DESC": "SCID mice bearing twin HEK293-CCK2i4svR and wtHEK293 tumors",
    "OBSERVED_RESULT": 20.39
  }
]

Task item: Complete the entry with Biodistribution, CCK2i4svR(+) Tumor for CC(C)(C)C(=O)CN1C(=O)[C@H](NC(=O)Nc2cccc(C(=O)NCCOCCOCCOCCNC(=O)[C@H](CCC(=O)O)NC(=O)CN3CCN(CC(=O)[O-])CCN(CC(=O)[O-])CCN(CC(=O)[O-])CC3)c2)CN(C2CCCCC2)c2ccccc21.[111In+3] (stereo in doubt) [[^111In]In-GAS1]
Reply: 17.79

Task item: Complete the entry with Biodistribution, CCK2i4svR(+) Tumor for CC(C)(C)C(=O)CN1C(=O)[C@H](NC(=O)Nc2cccc(C(=O)NCCOCCOCCOCCNC(=O)[C@H](CCC(=O)O)NC(=O)CCC(C(=O)[O-])N3CCN(CC(=O)[O-])CCN(CC(=O)[O-])CC3)c2)CN(C2CCCCC2)c2ccccc21.[67Ga+3] (stereo in doubt) [[^67Ga]Ga-GAS2]
Reply: 1.53

Task item: Complete the entry with Biodistribution, CCK2i4svR(+) Tumor for CC(C)(C)C(=O)CN1C(=O)[C@H](NC(=O)Nc2cccc(C(=O)NCCOCCOCCOCCNC(=O)[C@@H](CCC(=O)O)NC(=O)CCC(C(=O)O)N3CCN(CC(=O)[O-])CCN(CC(=O)[O-])CCN(CC(=O)[O-])CC3)c2)CN(C2CCCCC2)c2ccccc21.[111In+3] (stereo partly shown) [[^111In]In-GAS3]
Reply: 19.83

Task item: Complete the entry with Biodistribution, CCK2i4svR(+) Tumor for CC(C)(C)C(=O)CN1C(=O)[C@H](NC(=O)Nc2cccc(C(=O)NCCOCCOCCOCCNC(=O)[C@H](CCC(=O)O)NC(=O)CN3CCN(CC(=O)[O-])CCN(CC(=O)[O-])CCN(CC(=O)[O-])CC3)c2)CN(C2CCCCC2)c2ccccc21.[177Lu+3] (stereo in doubt) [[^177Lu]Lu-GAS1]
Reply: 8.74

###

Measured Biodistribution, Kidneys accompanies every entry in the list below.
Test system: SCID mice bearing twin HEK293-CCK2i4svR and wtHEK293 tumors
TEST: Biodistribution in SCID mice bearing twin HEK293-CCK2i4svR and wtHEK293 xenografts
Format: in vivo
REPORTED_CONDITIONS: 4 h pi
Provide the reading as a plain figure in %IA/g.

// solved cases for Biodistribution, Kidneys follow
[
  {
    "COMPOUND": "CC(C)(C)C(=O)CN1C(=O)[C@H](NC(=O)Nc2cccc(C(=O)NCCOCCOCCOCCNC(=O)[C@@H](CCC(=O)O)NC(=O)CCC(C(=O)O)N3CCN(CC(=O)[O-])CCN(CC(=O)[O-])CCN(CC(=O)[O-])CC3)c2)CN(C2CCCCC2)c2ccccc21.[111In+3] (stereo partly shown) [[^111In]In-GAS3]",
    "UNITS_OF_MEASURE": "%IA/g",
    "Biodistribution, Kidneys": 9.32
  },
  {
    "COMPOUND": "CC(C)(C)C(=O)CN1C(=O)[C@H](NC(=O)Nc2cccc(C(=O)NCCOCCOCCOCCNC(=O)[C@H](CCC(=O)O)NC(=O)CCC(C(=O)O)N3CCN(CC(=O)[O-])CCN(CC(=O)[O-])CCN(CC(=O)[O-])CC3)c2)CN(C2CCCCC2)c2ccccc21.[177Lu+3] (stereo in doubt) [[^177Lu]Lu-GAS3]",
    "UNITS_OF_MEASURE": "%IA/g",
    "Biodistribution, Kidneys": 8.86
  },
  {
    "COMPOUND": "CC(C)(C)C(=O)CN1C(=O)[C@H](NC(=O)Nc2cccc(C(=O)NCCOCCOCCOCCNC(=O)[C@H](CCC(=O)O)NC(=O)CN3CCN(CC(=O)[O-])CCN(CC(=O)[O-])CCN(CC(=O)[O-])CC3)c2)CN(C2CCCCC2)c2ccccc21.[177Lu+3] (stereo in doubt) [[^177Lu]Lu-GAS1]",
    "UNITS_OF_MEASURE": "%IA/g",
    "Biodistribution, Kidneys": 3.70
  }
]

Note: attention shifts to another entry.
Task item: Complete the entry with Biodistribution, Kidneys for CC(C)(C)C(=O)CN1C(=O)[C@H](NC(=O)Nc2cccc(C(=O)NCCOCCOCCOCCNC(=O)[C@H](CCC(=O)O)NC(=O)CCC(C(=O)O)N3CCN(CC(=O)[O-])CCN(CC(=O)[O-])CCN(CC(=O)[O-])CC3)c2)CN(C2CCCCC2)c2ccccc21.[67Ga+3] (stereo in doubt) [[^67Ga]Ga-GAS3]
Reply: 7.86

###

Tested on: SCID mice bearing twin HEK293-CCK2i4svR and wtHEK293 tumors
TEST: Biodistribution in SCID mice bearing twin HEK293-CCK2i4svR and wtHEK293 xenografts
Format: in vivo
REPORTED_CONDITIONS: 4 h pi
Measured Biodistribution, Spleen accompanies every entry in the list below.
Provide the reading as a plain figure in %IA/g.

[
  {
    "COMPOUND": "CC(C)(C)C(=O)CN1C(=O)[C@H](NC(=O)Nc2cccc(C(=O)NCCOCCOCCOCCNC(=O)[C@H](CCC(=O)O)NC(=O)CCC(C(=O)[O-])N3CCN(CC(=O)[O-])CCN(CC(=O)[O-])CC3)c2)CN(C2CCCCC2)c2ccccc21.[67Ga+3] (stereo in doubt) [[^67Ga]Ga-GAS2]",
    "Biodistribution, Spleen [%IA/g]": 0.55
  },
  {
    "COMPOUND": "CC(C)(C)C(=O)CN1C(=O)[C@H](NC(=O)Nc2cccc(C(=O)NCCOCCOCCOCCNC(=O)[C@H](CCC(=O)O)NC(=O)CN3CCN(CC(=O)[O-])CCN(CC(=O)[O-])CCN(CC(=O)[O-])CC3)c2)CN(C2CCCCC2)c2ccccc21.[111In+3] (stereo in doubt) [[^111In]In-GAS1]",
    "Biodistribution, Spleen [%IA/g]": 1.56
  }
]

Note: attention shifts to another entry.
Task item: Complete the entry with Biodistribution, Spleen for CC(C)(C)C(=O)CN1C(=O)[C@H](NC(=O)Nc2cccc(C(=O)NCCOCCOCCOCCNC(=O)[C@H](CCC(=O)O)NC(=O)CCC(C(=O)O)N3CCN(CC(=O)[O-])CCN(CC(=O)[O-])CCN(CC(=O)[O-])CC3)c2)CN(C2CCCCC2)c2ccccc21.[67Ga+3] (stereo in doubt) [[^67Ga]Ga-GAS3]
Reply: 1.60

###

Tested on: SCID mice bearing twin HEK293-CCK2i4svR and wtHEK293 tumors
TEST: Biodistribution in SCID mice bearing twin HEK293-CCK2i4svR and wtHEK293 xenografts
Assay type: in vivo
REPORTED_CONDITIONS: 24 h pi
Measured Biodistribution, Liver accompanies every entry in the list below.
Provide the reading as a plain figure in %IA/g.

[
  {
    "MOLECULE": "CC(C)(C)C(=O)CN1C(=O)[C@H](NC(=O)Nc2cccc(C(=O)NCCOCCOCCOCCNC(=O)[C@H](CCC(=O)O)NC(=O)CCC(C(=O)O)N3CCN(CC(=O)[O-])CCN(CC(=O)[O-])CCN(CC(=O)[O-])CC3)c2)CN(C2CCCCC2)c2ccccc21.[177Lu+3] (stereo in doubt) [[^177Lu]Lu-GAS3]",
    "UNITS_OF_MEASURE": "%IA/g",
    "Biodistribution, Liver": 0.51
  }
]

Note: attention shifts to another entry.
Task item: Complete the entry with Biodistribution, Liver for CC(C)(C)C(=O)CN1C(=O)[C@H](NC(=O)Nc2cccc(C(=O)NCCOCCOCCOCCNC(=O)[C@H](CCC(=O)O)NC(=O)CCC(C(=O)[O-])N3CCN(CC(=O)[O-])CCN(CC(=O)[O-])CC3)c2)CN(C2CCCCC2)c2ccccc21.[67Ga+3] (stereo in doubt) [[^67Ga]Ga-GAS2]
Reply: 0.78
